Where do the numbers come from? From patent US10793529B2.

Target: human prostacyclin (PGI2) receptor (Homo sapiens (Human), UniProt P43119)
Sequence (P43119 whole entry): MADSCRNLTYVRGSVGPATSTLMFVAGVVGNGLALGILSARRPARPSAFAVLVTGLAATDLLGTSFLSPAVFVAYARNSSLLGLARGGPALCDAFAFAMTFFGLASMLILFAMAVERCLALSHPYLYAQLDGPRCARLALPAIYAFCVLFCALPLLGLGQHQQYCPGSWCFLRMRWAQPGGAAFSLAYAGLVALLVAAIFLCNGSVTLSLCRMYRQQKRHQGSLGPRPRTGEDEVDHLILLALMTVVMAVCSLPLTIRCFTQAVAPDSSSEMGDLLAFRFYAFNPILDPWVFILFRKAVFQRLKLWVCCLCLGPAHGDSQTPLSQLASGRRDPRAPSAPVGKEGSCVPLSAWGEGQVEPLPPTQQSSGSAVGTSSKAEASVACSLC
Test: HTRF assay for direct cAMP measurement
Type: cell-based
Settings: recombinant CHO-K1 cells stably transfected with human prostacyclin receptor; cAMP increase
Description: Compounds were screened for agonists of the human prostacyclin (PGI2) receptor using the HTRF® assay for direct cAMP measurement (Gabriel et al., ASSAY and Drug Development Technologies, 1:291-303, 2003) and recombinant CHO-K1 cells stably transfected with human prostacyclin receptor. […] An agonist of the prostacyclin receptor was detected in HTRF® assay for direct cAMP measurement as a compound which increased cAMP concentration. […]
The entries below come with measured EC50 values attached.
Number in nM, nothing else.

Worked cases, answers included:
COMPOUND | MEASURED TARGET | EC50, nM
Cc1ccc(-c2nc(=O)n(C[C@H]3CC[C@@H](COCC(=O)O)CC3)nc2-c2ccc(C)cc2)cc1 [Compound 43] | human prostacyclin (PGI2) receptor (Homo sapiens (Human), UniProt P43119) | 36
O=C(O)COC[C@H]1CC[C@@H](Cn2nc(-c3ccccc3)c(-c3cccc(Cl)c3)nc2=O)CC1 [Compound 67] | human prostacyclin (PGI2) receptor (Homo sapiens (Human), UniProt P43119) | 73
COc1ccc(-c2nn(C[C@H]3CC[C@@H](COCC(=O)O)CC3)c(=O)nc2-c2ccccc2)cc1 [Compound 69] | human prostacyclin (PGI2) receptor (Homo sapiens (Human), UniProt P43119) | 8

Turning now to a further compound:
Reported EC50, compound O=C(O)COC[C@H]1CC[C@@H](Cn2nc(-c3ccccc3)c(-c3cccc(Cl)c3F)cc2=O)CC1 [Compound 31] : ____
31
